MEASURED_ON: Hexose transporter 1 (Plasmodium falciparum) (UniProt O97467)
MEASUREMENT_PROTOCOL: ST_JUDE_LEISH: Cytotoxicity at 2uM final concentration against transgenic Leishmania Mexicana promastigotes LmPfHT that are glucose transport deficient and complemented with the Plasmodium falciparum hexose transporter. Activity is measured by DNA content using SYBR green in vitro
Type: functional
METRIC_NAME: inhibition
Remember to follow the number with its unit.

Recorded results for 6 molecules are shown here.
O=C(Cc1c[nH]cn1)Nc1cccc(-c2cccc(-c3nc4cc(C(F)(F)F)ccc4[nH]3)c2)c1 | 12.1%
Cc1cccc2nc(-c3ccc(-c4ccc(CN5CCN(CCO)CC5)cc4)cc3)[nH]c12 | 31.3%
COc1cc(N)c(Cl)cc1C(=O)NC1CCC(NCC2CCCCC2)CC1 (stereo not given) | 1.99%
Cc1ccccc1C1CCN(C2CCC(NC(=O)c3csc(-c4cccc(Cl)c4)n3)CC2)CC1 (stereo not given) | 12%
O=C(NCc1ccc(C(=O)NC2CCCCCC2)cc1)c1ccc(O)c(-c2ccc(Cl)c(Cl)c2)c1 | 1.13%
COc1ccc(CC(=O)Nc2ccc(-c3cccc(-c4nc5cccc(C)c5[nH]4)c3)cc2)cc1O | 5.29%

# input // query inhibition value for entry Nc1c2c(nc3ccc(C(=O)Nc4cc(I)c(O)c(I)c4)cc13)CCCC2
# output 1.9%

# input Requested read-out: inhibition. Entry: Cc1cccc(CNc2nccc3[nH]c4ccccc4c23)c1
# output 4.77%

# input Sample N#Cc1cncc(-c2nc3c(N4CCCC(N)C4)cccc3n2CCNCc2ccccc2)c1 (stereo not given) — what was its inhibition?
# output 5.11%

# input May I ask what inhibition has been recorded for O=C(Nc1ccc(-c2csc3nccn23)cc1)c1ccc(Cl)cc1 ?
# output 4.05%
